B1: JUNB (parent)
chain: FVKALDDLHKMNHVTPPNVSLGAT

- Variants of: B1
- Measurement Protocol: protein stability index of a GFP-peptide fusion (GPS, HEK-293T) (PSI 1-6); higher = more stable;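 further: lentivirally expressed fusions sorted by FACS into six bins by GFP to DsRed ratio, PSI derived from sequencing read proportions per bin multiplied by bin number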
- Experimental Setup: c terminus: a fixed tail appended
# maps each entry to its protein stability index
Number only, no unit.

# count of solved cases: 3
Mutant Label: P16E
Measurement Type: protein stability index
Experimental Value: 2.55
--
Mutant Label: G22C
Measurement Type: protein stability index
Experimental Value: 2.47
--
Mutant Label: N12F
Measurement Type: protein stability index
Experimental Value: 1.74

stdin: Data request, read-out protein stability index, for V2K
stdout: 3.07

stdin: Thanks! And V14F ?
stdout: 1.8
